Numbers sourced from patent US20140056903A1.

- tested on: T1, human GFRα3 expressed with a C-terminal myc-myc-hexahistidine tag (human, UniProt O60609 32-374, biotinylated (sites not given) in ELISA format 2 and in the Octet cross-competition; not in SPR)
- T1 construct: also called hGFRα3-mmh; hGFRα3-mmH
- T1 sequence (O60609 other isoform, or with tags, fused parts or gaps limits assumed): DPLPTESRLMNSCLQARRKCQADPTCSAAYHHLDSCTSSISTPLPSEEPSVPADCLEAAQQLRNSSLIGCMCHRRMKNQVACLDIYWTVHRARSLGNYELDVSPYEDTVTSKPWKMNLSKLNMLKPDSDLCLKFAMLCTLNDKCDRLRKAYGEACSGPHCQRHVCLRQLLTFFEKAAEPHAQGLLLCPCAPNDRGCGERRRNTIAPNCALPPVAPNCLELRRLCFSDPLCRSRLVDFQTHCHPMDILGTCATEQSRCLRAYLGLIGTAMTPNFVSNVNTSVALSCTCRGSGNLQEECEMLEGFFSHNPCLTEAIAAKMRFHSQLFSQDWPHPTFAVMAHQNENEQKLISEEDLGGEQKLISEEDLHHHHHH
- assay text: SPR, Ab captured, 25C
test readout: t1/2
Could you kindly put the unit after your number?

The value of t1/2 measured for the binder H4H2293P (antibody, human IgG4, V domains shown, human IgG4 Fc (H4H)) VH: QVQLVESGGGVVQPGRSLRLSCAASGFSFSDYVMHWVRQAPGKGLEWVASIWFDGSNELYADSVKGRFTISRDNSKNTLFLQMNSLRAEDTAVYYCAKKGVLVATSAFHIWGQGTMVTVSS VL: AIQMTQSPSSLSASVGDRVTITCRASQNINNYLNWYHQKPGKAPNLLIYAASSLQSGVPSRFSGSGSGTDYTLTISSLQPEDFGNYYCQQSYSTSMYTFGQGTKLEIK turned out to be 1.52 h

The value of t1/2 measured for the binder H4H2354S (antibody, human IgG4, V domains shown, human IgG4 Fc (H4H); also called H4H2354S-1) VH: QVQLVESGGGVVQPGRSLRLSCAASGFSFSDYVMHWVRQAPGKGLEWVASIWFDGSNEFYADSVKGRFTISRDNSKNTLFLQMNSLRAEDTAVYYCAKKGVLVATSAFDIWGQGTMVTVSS VL: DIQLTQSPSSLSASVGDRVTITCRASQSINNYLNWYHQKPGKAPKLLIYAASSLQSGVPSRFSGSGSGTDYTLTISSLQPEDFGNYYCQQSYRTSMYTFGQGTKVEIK turned out to be 1.75 h

The value of t1/2 measured for the binder H4H2292S (antibody, human IgG4, V domains shown, human IgG4 Fc (H4H)) VH: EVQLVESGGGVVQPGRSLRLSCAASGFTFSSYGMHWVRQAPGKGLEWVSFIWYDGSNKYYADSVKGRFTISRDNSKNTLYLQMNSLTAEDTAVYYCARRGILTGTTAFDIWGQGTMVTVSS VL: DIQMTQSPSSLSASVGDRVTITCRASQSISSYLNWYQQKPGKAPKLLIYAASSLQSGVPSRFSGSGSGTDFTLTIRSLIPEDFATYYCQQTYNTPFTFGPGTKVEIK turned out to be 3.72 h

The value of t1/2 measured for the binder H4H2291S (antibody, human IgG4, V domains shown, human IgG4 Fc (H4H)) VH: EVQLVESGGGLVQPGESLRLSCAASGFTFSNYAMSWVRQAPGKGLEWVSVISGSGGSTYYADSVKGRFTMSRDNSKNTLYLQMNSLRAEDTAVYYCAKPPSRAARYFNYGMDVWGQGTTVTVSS VL: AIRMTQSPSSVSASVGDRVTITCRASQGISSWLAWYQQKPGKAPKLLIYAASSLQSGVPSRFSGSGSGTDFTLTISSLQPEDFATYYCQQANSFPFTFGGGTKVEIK turned out to be 1.17 h

The value of t1/2 measured for the binder H4H2294S (antibody, human IgG4, V domains shown, human IgG4 Fc (H4H)) VH: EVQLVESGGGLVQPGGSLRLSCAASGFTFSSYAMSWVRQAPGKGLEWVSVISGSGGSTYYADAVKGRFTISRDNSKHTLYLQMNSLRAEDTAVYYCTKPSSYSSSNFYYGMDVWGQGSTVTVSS VL: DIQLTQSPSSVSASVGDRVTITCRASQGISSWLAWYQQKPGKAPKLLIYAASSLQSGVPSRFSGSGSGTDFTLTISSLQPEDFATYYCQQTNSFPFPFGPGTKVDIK turned out to be 2.42 h

The value of t1/2 measured for the binder H2aM2210N (antibody, mouse IgG2, V domains shown, chimeric, mouse IgG2 Fc (H2M/H2aM); also called H2M2210N) VH: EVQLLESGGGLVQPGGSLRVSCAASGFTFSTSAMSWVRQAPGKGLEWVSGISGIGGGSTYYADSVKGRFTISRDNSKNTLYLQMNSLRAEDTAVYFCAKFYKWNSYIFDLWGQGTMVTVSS VL: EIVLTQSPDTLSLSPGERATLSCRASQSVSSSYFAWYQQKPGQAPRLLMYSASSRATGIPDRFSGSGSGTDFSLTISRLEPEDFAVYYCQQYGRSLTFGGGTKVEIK turned out to be 0.217 h
